Attribution: paper PMC6315376

Target: AAK1 (Homo sapiens, UniProt Q2M2I8)
Test: biochemical
Type: binding
Sequence (Q2M2I8 31-396): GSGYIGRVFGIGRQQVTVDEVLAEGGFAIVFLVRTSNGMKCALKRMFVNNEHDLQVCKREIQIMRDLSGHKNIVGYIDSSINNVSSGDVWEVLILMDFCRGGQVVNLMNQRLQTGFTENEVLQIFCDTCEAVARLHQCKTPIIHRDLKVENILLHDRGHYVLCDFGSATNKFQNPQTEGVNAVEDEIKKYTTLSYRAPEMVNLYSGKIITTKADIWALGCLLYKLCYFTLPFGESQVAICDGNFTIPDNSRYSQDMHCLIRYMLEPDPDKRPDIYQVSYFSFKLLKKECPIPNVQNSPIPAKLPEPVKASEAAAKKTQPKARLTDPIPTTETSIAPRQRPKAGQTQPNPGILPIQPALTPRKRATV
pKi: −log10 of the molar value.
assay endpoint: pKi

CC(C)C(=O)Nc1n[nH]c2cc(-c3cccc(NS(=O)(=O)C4CC4)c3)ccc12 [34A] = 5.70

* * *

Biological target: PIP5K1C (Homo sapiens)
Sequence (O60331 whole entry): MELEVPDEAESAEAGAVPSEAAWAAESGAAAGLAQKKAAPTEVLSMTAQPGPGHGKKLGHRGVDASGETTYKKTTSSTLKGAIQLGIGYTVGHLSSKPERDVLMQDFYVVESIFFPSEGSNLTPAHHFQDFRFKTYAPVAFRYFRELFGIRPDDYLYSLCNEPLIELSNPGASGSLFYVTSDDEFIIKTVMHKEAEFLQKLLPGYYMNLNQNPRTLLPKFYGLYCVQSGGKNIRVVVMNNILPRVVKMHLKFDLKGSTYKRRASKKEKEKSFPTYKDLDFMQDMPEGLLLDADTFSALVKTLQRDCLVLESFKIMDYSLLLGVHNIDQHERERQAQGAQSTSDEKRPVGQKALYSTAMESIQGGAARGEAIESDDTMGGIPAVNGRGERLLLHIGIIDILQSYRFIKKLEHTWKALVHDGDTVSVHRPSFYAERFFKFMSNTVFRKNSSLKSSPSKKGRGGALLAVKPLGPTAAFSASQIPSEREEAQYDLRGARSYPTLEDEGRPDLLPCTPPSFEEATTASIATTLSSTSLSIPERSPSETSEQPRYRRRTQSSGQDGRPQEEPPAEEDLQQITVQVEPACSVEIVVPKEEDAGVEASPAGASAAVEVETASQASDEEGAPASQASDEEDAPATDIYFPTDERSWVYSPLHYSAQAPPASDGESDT
assay endpoint: IC50 (µM)

CC(C)C(=O)Nc1n[nH]c2cc(-c3cccc(NS(=O)(=O)C4CC4)c3)ccc12 [34A] = 3.6

* * *

Molecular target: UniProt Q2M2I8
pIC50: −log10 of the molar value.
assay endpoint: pIC50

CC(C)C(=O)Nc1n[nH]c2cc(-c3cccc(NS(=O)(=O)C4CC4)c3)ccc12 [34A] = < 6.00
